Tested on: Hep-2 (laryngeal carcinoma) cells
Test: MTT cell growth inhibition, solid tumor cells
Assay type: cell-based
Settings: Homo sapiens; Hep-2, 72 h, MTT; read-out: IC50
Each entry below carries its recorded IC50.

| Compound | IC50 |
| --- | --- |
| COc1ccc2cc1Oc1ccc(cc1)C[C@H]1c3cc(c(OC)cc3CCN1C)Oc1c(OS(=O)(=O)c3ccccc3)c(OC)cc3c1[C@H](C2)N(C)CC3 | 3.18 µg/mL |
| C=CCOc1c(OC)cc2c3c1Oc1cc4c(cc1OC)CCN(C)[C@H]4Cc1ccc(cc1)Oc1cc(ccc1OC)C[C@@H]3N(C)CC2 | 3.63 µg/mL |
| COc1ccc2cc1Oc1ccc(cc1)C[C@H]1c3cc(c(OC)cc3CCN1C)Oc1c(OCC(O)CN3CCSCC3)c(OC)cc3c1[C@H](C2)N(C)CC3 (stereo partly drawn) | 2.36 µg/mL |
| COc1ccc2cc1Oc1ccc(cc1)C[C@H]1c3cc(c(OC)cc3CCN1C)Oc1c(OCC3CC3)c(OC)cc3c1[C@H](C2)N(C)CC3 | 3.27 µg/mL |
| COc1ccc2cc1Oc1ccc(cc1)C[C@H]1c3cc(c(OC)cc3CCN1C)Oc1c(OCc3cccc(F)c3F)c(OC)cc3c1[C@H](C2)N(C)CC3 | 3.18 µg/mL |
| COc1ccc2cc1Oc1ccc(cc1)C[C@H]1c3cc(c(OC)cc3CCN1C)Oc1c(OS(=O)(=O)c3ccc(C)cc3)c(OC)cc3c1[C@H](C2)N(C)CC3 | 3.99 µg/mL |
| COc1ccc2cc1Oc1ccc(cc1)C[C@H]1c3cc(c(OC)cc3CCN1C)Oc1c(OCC(O)CN3CCN(C#N)CC3)c(OC)cc3c1[C@H](C2)N(C)CC3 (stereo partly drawn) | 1.92 µg/mL |
| COc1ccc2cc1Oc1ccc(cc1)C[C@H]1c3cc(c(OC)cc3CCN1C)Oc1c(OC(=O)C3CC3)c(OC)cc3c1[C@H](C2)N(C)CC3 | 4.95 µg/mL |
| C=C(C)COc1c(OC)cc2c3c1Oc1cc4c(cc1OC)CCN(C)[C@H]4Cc1ccc(cc1)Oc1cc(ccc1OC)C[C@@H]3N(C)CC2 | 1.9 µg/mL |
| COc1ccc2cc1Oc1ccc(cc1)C[C@H]1c3cc(c(OC)cc3CCN1C)Oc1c(OC(=O)c3ccc(N(C)C)cc3)c(OC)cc3c1[C@H](C2)N(C)CC3 | 3.08 µg/mL |
| COc1cc(OC)cc(C(=O)Oc2c(OC)cc3c4c2Oc2cc5c(cc2OC)CCN(C)[C@H]5Cc2ccc(cc2)Oc2cc(ccc2OC)C[C@@H]4N(C)CC3)c1 | 1.64 µg/mL |
| COc1ccc2cc1Oc1ccc(cc1)C[C@H]1c3cc(c(OC)cc3CCN1C)Oc1c(OCc3ccc(C(F)(F)F)cc3)c(OC)cc3c1[C@H](C2)N(C)CC3 | 3.69 µg/mL |
| C=CCN(C)CC(O)COc1c(OC)cc2c3c1Oc1cc4c(cc1OC)CCN(C)[C@H]4Cc1ccc(cc1)Oc1cc(ccc1OC)C[C@@H]3N(C)CC2 (stereo partly drawn) | 1.79 µg/mL |
| COc1ccc2cc1Oc1ccc(cc1)C[C@H]1c3cc(c(OC)cc3CCN1C)Oc1c(OC3CCCC3)c(OC)cc3c1[C@H](C2)N(C)CC3 | 4.2 µg/mL |
| COc1ccc2cc1Oc1ccc(cc1)C[C@H]1c3cc(c(OC)cc3CCN1C)Oc1c(OC(=O)c3c(F)cccc3Cl)c(OC)cc3c1[C@H](C2)N(C)CC3 | 3.66 µg/mL |
| COc1ccc2cc1Oc1ccc(cc1)C[C@H]1c3cc(c(OC)cc3CCN1C)Oc1c(OCC(O)CNCC3CC3)c(OC)cc3c1[C@H](C2)N(C)CC3 (stereo partly drawn) | 1.67 µg/mL |
| COc1ccc2cc1Oc1ccc(cc1)C[C@H]1c3cc(c(OC)cc3CCN1C)Oc1c(OCC(O)CN3CCCCC3)c(OC)cc3c1[C@H](C2)N(C)CC3 (stereo partly drawn) | 1.76 µg/mL |
| COc1ccc2cc1Oc1ccc(cc1)C[C@H]1c3cc(c(OC)cc3CCN1C)Oc1c(OCC(O)CN3CCCC(C)C3)c(OC)cc3c1[C@H](C2)N(C)CC3 (stereo partly drawn) | 2.25 µg/mL |

Where do the numbers come from? From patent US9328122B2.
